Experiment: NCI Yeast Anticancer Drug Screen. Data for the bub3 strain (AID 167)
Conditions: S. cerevisiae bub3 mutant strain, at 100.0 µM, active compounds read high
This is part of a sample that, as a whole, favours compounds with a hit. Of some 79,000 tested, about 15% had one in any assay.
readout_label: growth inhibition (%)
Hi! Could you send only the number? It should be in %, unit omitted.

>>> df
                            chemical_smiles  unit_text  numeric_readout
0              c1ccc2c(c1)Oc1cccc3cccc-2c13          %               36
1  CCNc1nnc(CSc2nc(-c3ccccc3)c(-c3ccccc3)[nH]2)s1          %               82

Input: // Input: CC[n+]1ccc2c(C)c3[nH]c4ccc(O)cc4c3c(C)c2c1 . Output its growth inhibition only.
Output: 15

Input: Note growth inhibition for the compound shown: S=C(N/N=C(/c1ccccc1)c1ccccn1)N1CCCCCC1
Output: 2

Input: Quickly give me recorded growth inhibition for Cc1ccc2ccc3cccc4ccc1c2c34
Output: 58

Input: Determine its reported growth inhibition: [O-][n+]1c2ccc(O)cc2nc2ccc(Cl)cc21
Output: 59
